Just for reference, ChEMBL document CHEMBL3832761 is where these values come from.

- Test system: Mycobacterium tuberculosis
- Protocol Summary: AntiMycobacterium tuberculosis activity 2-week Alamar Blue 7H9/cholesterol/BSA/Tx MIC (uM)
- Assay type: functional
- Run Parameters: 336 h
Could you please mark Criterion met for values of MIC below 3 µM and Criterion not met for values at or above it?

[[record]]
compound = "CCc1ccc(S(=O)(=O)Nc2cc(CN3CCN(CCC(C)C)CC3)ccc2C)cc1"
tested_target = "Mycobacterium tuberculosis"
group_label = "Criterion not met"

[[record]]
compound = "COc1ccc2nccc(NC(=O)C3CCN(CCc4ccc(Cl)cc4)CC3)c2n1"
tested_target = "Mycobacterium tuberculosis"
group_label = "Criterion met"

[[record]]
compound = "Cc1cc(OCC(=O)NCc2ccccc2)c2cc(Br)ccc2n1"
tested_target = "Mycobacterium tuberculosis"
group_label = "Criterion met"

[[record]]
compound = "Cc1nnc(NCc2cccc(Cl)c2)c2ccccc12"
tested_target = "Mycobacterium tuberculosis"
group_label = "Criterion not met"

[[record]]
compound = "NC(=O)c1cc(Br)ccc1OCCOc1ccccc1"
tested_target = "Mycobacterium tuberculosis"
group_label = "Criterion not met"

[[record]]
compound = "c1cncc(NCc2ccc(-c3cc4ccncc4cc3OC3CCNCC3)s2)c1"
tested_target = "Mycobacterium tuberculosis"
group_label = "Criterion not met"

[[record]]
compound = "O=C(Nc1nc(-c2ccccn2)cs1)c1cncn1-c1ccccc1"
tested_target = "Mycobacterium tuberculosis"
group_label = "Criterion not met"

[[record]]
compound = "CC(Oc1ccccc1)C(=O)Nc1nc(-c2ccccn2)cs1 (stereo unspecified)"
tested_target = "Mycobacterium tuberculosis"
group_label = "Criterion not met"

[[record]]
compound = "COc1cccc(-n2nnnc2S(=O)(=O)Cc2ccccc2)c1"
tested_target = "Mycobacterium tuberculosis"
group_label = "Criterion not met"

[[record]]
compound = "O=C(c1[nH]nc2c1CCCC2)N1CCN(Cc2ccc3c(c2)OCO3)CC1"
tested_target = "Mycobacterium tuberculosis"
group_label = "Criterion met"

[[record]]
compound = "O=C(N[C@H](Cc1ccccc1)C(=O)Nc1ccccc1N1CCOCC1)c1cccs1"
tested_target = "Mycobacterium tuberculosis"
group_label = "Criterion not met"

[[record]]
compound = "COc1ccc(Cn2cnc3c(-c4ccco4)nc(Cl)nc32)cc1"
tested_target = "Mycobacterium tuberculosis"
group_label = "Criterion not met"

[[record]]
compound = "NC(=O)c1cc(-c2ccsc2)ccc1OCCOc1ccccc1"
tested_target = "Mycobacterium tuberculosis"
group_label = "Criterion not met"

[[record]]
compound = "CC1=NN(c2nc3ccccc3s2)C(=O)C1Cc1cccc2ccccc12 (stereo unspecified)"
tested_target = "Mycobacterium tuberculosis"
group_label = "Criterion not met"

[[record]]
compound = "O=C(NC1=NCCS1)c1sc2cc(F)ccc2c1Cl"
tested_target = "Mycobacterium tuberculosis"
group_label = "Criterion not met"

[[record]]
compound = "CC(C)=CCC/C(C)=C\\CNCCNC1C2CC3CC(C2)CC1C3 (stereo unspecified)"
tested_target = "Mycobacterium tuberculosis"
group_label = "Criterion met"

[[record]]
compound = "COc1ccccc1OCCCCn1c(C2CC2)nc2ccccc21"
tested_target = "Mycobacterium tuberculosis"
group_label = "Criterion not met"

[[record]]
compound = "CCC(Sc1nc2ccccc2o1)C(=O)Nc1nnc(C)s1 (stereo unspecified)"
tested_target = "Mycobacterium tuberculosis"
group_label = "Criterion not met"

[[record]]
compound = "O=C(NCCc1c[nH]c2ccccc12)c1cc2ccccc2oc1=O"
tested_target = "Mycobacterium tuberculosis"
group_label = "Criterion not met"

[[record]]
compound = "c1coc(CNc2nc(N3CCCCC3)nc3ccccc23)c1"
tested_target = "Mycobacterium tuberculosis"
group_label = "Criterion not met"

[[record]]
compound = "CCC(Sc1nc2ccccc2o1)C(=O)Nc1nccs1 (stereo unspecified)"
tested_target = "Mycobacterium tuberculosis"
group_label = "Criterion not met"

[[record]]
compound = "O=C(Nc1nnc(-c2ccc(Cl)cc2)o1)c1cccc(C(F)(F)F)c1"
tested_target = "Mycobacterium tuberculosis"
group_label = "Criterion not met"

[[record]]
compound = "CCc1c(C)nc(-n2nc(C)cc2NC(=O)c2ccccc2SC)[nH]c1=O"
tested_target = "Mycobacterium tuberculosis"
group_label = "Criterion not met"

[[record]]
compound = "CCc1nc2ccc(Cl)cn2c1C(=O)NCc1ccc(N2CCC(c3ccc(OC(F)(F)F)cc3)CC2)cc1 [TELACEBEC]"
tested_target = "Mycobacterium tuberculosis"
group_label = "Criterion met"

[[record]]
compound = "Clc1ccc(CCNc2cc(-c3ccccc3)nc3ncnn23)cc1"
tested_target = "Mycobacterium tuberculosis"
group_label = "Criterion not met"

[[record]]
compound = "CCc1nc2ccccc2n1CC(O)COc1cc(C)ccc1Cl (stereo unspecified)"
tested_target = "Mycobacterium tuberculosis"
group_label = "Criterion not met"

[[record]]
compound = "CC(=O)NC[C@H]1CN(c2ccc(N3CCSCC3)c(F)c2)C(=O)O1 [SUTEZOLID]"
tested_target = "Mycobacterium tuberculosis"
group_label = "Criterion met"

[[record]]
compound = "COc1cccc(-n2nnnc2S(C)(=O)=O)c1"
tested_target = "Mycobacterium tuberculosis"
group_label = "Criterion not met"

[[record]]
compound = "CN1CCN(CCCOc2ncc(Nc3ncc(-c4ccc(C(F)(F)F)c(F)c4)nc3C(N)=O)cn2)CC1"
tested_target = "Mycobacterium tuberculosis"
group_label = "Criterion met"

[[record]]
compound = "CCCCc1ccc(C(=O)Nc2nccc3ccccc23)nc1"
tested_target = "Mycobacterium tuberculosis"
group_label = "Criterion met"

[[record]]
compound = "Cc1cc(C)c2cc(C(=O)NC3CCCCCCC3)[nH]c2c1"
tested_target = "Mycobacterium tuberculosis"
group_label = "Criterion met"

[[record]]
compound = "CC(=O)N1CCc2cc3nc(C)cc(C)c3cc21"
tested_target = "Mycobacterium tuberculosis"
group_label = "Criterion met"

[[record]]
compound = "COc1ccc2nc(C)cc(OCC(=O)NCc3ccccc3)c2c1"
tested_target = "Mycobacterium tuberculosis"
group_label = "Criterion not met"

[[record]]
compound = "Cc1ccc2nc(C)c(-c3ccn(Cc4ccccc4)n3)n2c1"
tested_target = "Mycobacterium tuberculosis"
group_label = "Criterion not met"

[[record]]
compound = "O=C(NCc1ccco1)N1CCN(Cc2ccc(Cl)s2)CC1"
tested_target = "Mycobacterium tuberculosis"
group_label = "Criterion not met"

[[record]]
compound = "O=C(c1cc2ccccc2o1)N1CCN(Cc2ccc3c(c2)OCO3)CC1"
tested_target = "Mycobacterium tuberculosis"
group_label = "Criterion not met"

[[record]]
compound = "CC(=O)NCC1CN(c2ccc(-c3ccc(CO)cc3)c(F)c2)C(=O)O1 (stereo unspecified)"
tested_target = "Mycobacterium tuberculosis"
group_label = "Criterion met"

[[record]]
compound = "N#Cc1ccc(-c2ccc(OCC(N)=O)cc2)cc1"
tested_target = "Mycobacterium tuberculosis"
group_label = "Criterion not met"

[[record]]
compound = "NC(CC(=O)c1ccc(Cl)cc1Cl)C(Cl)(Cl)Cl (stereo unspecified)"
tested_target = "Mycobacterium tuberculosis"
group_label = "Criterion not met"

[[record]]
compound = "CCOC(=O)NC(=O)c1ccsc1NC(=O)c1nc2ccccc2s1"
tested_target = "Mycobacterium tuberculosis"
group_label = "Criterion met"

[[record]]
compound = "CCCCS(=O)(=O)Nc1ccc2cnn(C)c2c1"
tested_target = "Mycobacterium tuberculosis"
group_label = "Criterion met"

[[record]]
compound = "COc1cc(C(F)(F)F)nc2ccc(C)c(N)c12"
tested_target = "Mycobacterium tuberculosis"
group_label = "Criterion not met"

[[record]]
compound = "COc1ccc(OC(C)C(=O)Nc2ccc(Cl)cc2C)cc1 (stereo unspecified)"
tested_target = "Mycobacterium tuberculosis"
group_label = "Criterion not met"

[[record]]
compound = "COc1cccc(-c2nc3c(N4CCCC4)cccc3n2CC2CCCN2)n1 (stereo unspecified)"
tested_target = "Mycobacterium tuberculosis"
group_label = "Criterion not met"

[[record]]
compound = "O=[N+]([O-])c1cn2c(n1)OC[C@@H](OCc1ccc(OC(F)(F)F)cc1)C2 [PRETOMANID]"
tested_target = "Mycobacterium tuberculosis"
group_label = "Criterion met"

[[record]]
compound = "COc1ccc(C2(C(=O)Nc3ccc(Br)cc3)CCCC2)cc1"
tested_target = "Mycobacterium tuberculosis"
group_label = "Criterion not met"


====

- Test system: Mycobacterium tuberculosis
- Protocol Summary: AntiMycobacterium tuberculosis activity 2-week Alamar Blue 7H9/ADC/Tw MIC (uM)
- Assay type: functional
- Run Parameters: 336 h
Categories are assigned from the measured MIC using these intervals: category 1 = under 5 µM, category 2 = from 5 µM up to 9 µM, category 3 = 9 µM and over

[[record]]
compound_structure_string = "COc1ccc(Cn2cnc3c(-c4ccco4)nc(Cl)nc32)cc1"
group_label = "category 3"

[[record]]
compound_structure_string = "COc1ccc2nc(C)cc(OCC(=O)Nc3ccccc3OC)c2c1"
group_label = "category 1"

[[record]]
compound_structure_string = "CCc1c(C)nc(-n2nc(C)cc2NC(=O)c2ccccc2SC)[nH]c1=O"
group_label = "category 3"

[[record]]
compound_structure_string = "COc1ccc2nc(C)cc(OCC(=O)NCc3ccccc3)c2c1"
group_label = "category 2"

[[record]]
compound_structure_string = "O=C(N[C@H](Cc1ccccc1)C(=O)Nc1ccccc1N1CCOCC1)c1cccs1"
group_label = "category 1"

[[record]]
compound_structure_string = "CC(=O)N1CCc2cc3nc(C)cc(C)c3cc21"
group_label = "category 1"

[[record]]
compound_structure_string = "CS(=O)(=O)Cc1nc2ccccc2oc1=O"
group_label = "category 2"

[[record]]
compound_structure_string = "Cc1nc2ccccn2c1C(=O)NCc1ccc(Cl)cc1"
group_label = "category 1"

[[record]]
compound_structure_string = "COC(=O)c1c(NC(=O)c2c(F)c(F)c(F)c(F)c2F)sc2c1CCCCC2"
group_label = "category 1"

[[record]]
compound_structure_string = "Cc1ccc2oc(-c3cc(NC(=O)Cc4ccccc4)ccc3Cl)nc2c1"
group_label = "category 3"

[[record]]
compound_structure_string = "Cc1cccc(-c2nc(Nc3ccncn3)c3sccc3n2)n1"
group_label = "category 3"

